Consider the following compounds; for each one, report its viability, T/C.
System: 354836-022-R-J1-PDC multicell spheroid viability;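 further: spheroids exposed to agents for seven days before the viability read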
testProtocol: Anticancer human tumor 354836-022-R-J1-PDC patient-derived head and neck squamous cell carcinoma cell line growth inhibition [PI3K]
experimentalContext: second compound 0.0316 µM; first compound 0.00949 µM; active compounds read low

* Cn1cnc2c(F)c(Nc3ccc(Br)cc3Cl)c(C(=O)NOCCO)cc21 + CC(Nc1ncnc2nc[nH]c12)c1cc2cccc(Cl)c2c(=O)n1-c1ccccc1 | 94.3%
* Cn1cnc2c(F)c(Nc3ccc(Br)cc3Cl)c(C(=O)NOCCO)cc21 + COc1c(OCCCN2CCOCC2)ccc2c3n(c(=NC(=O)c4cnc(N)nc4)nc12)CCN3 | 81.2%
* Cn1cnc2c(F)c(Nc3ccc(Br)cc3Cl)c(C(=O)NOCCO)cc21 + Cc1nc(NC(=O)N2CCCC2C(N)=O)sc1-c1ccnc(C(C)(C)C(F)(F)F)c1 | 85.6%

query: Dear colleague, please send me the reported viability, T/C for Cn1cnc2c(F)c(Nc3ccc(Br)cc3Cl)c(C(=O)NOCCO)cc21 + CC(Nc1ccc2c(c1)OCCn1cc(N3C(=O)OCC3C(F)F)nc1-2)C(N)=O when you can.
result: 90%

Where do these numbers come from? They come from PubChem BioAssay AID1963981.
